Provenance of the data: PubChem BioAssay AID200

List of T/C values.
System: B6C3F1 mice, B16 melanoma ip, median survival T/C
TEST_DESCRIPTION: NCI In Vivo Anticancer Drug Screen. Data for tumor model B16 Melanoma (intraperitoneal) in B6C3F1 mice
PROTOCOL_CONDITIONS: endpoint: median survival time; dose: 50.0 mg/kg/injection; schedule: Q01DX009 (ip); vehicle: DMSO; higher = longer survival
Description: The antitumor activity of compounds was measured in mice bearing transplantable tumors. Survival or tumor size were measured and the results are expressed as the measurement made in the treated group (T) divided by the measurement made in the vehicle treated control group (C). The tumor model used in this assay is B16 Melanoma (intraperitoneal) in B6C3F1 mice
Toxic doses and inconclusive results are not listed.

Worked set:
# COMPOUND, STUDY_TARGET, MEASUREMENT
data = [
    ("O=C(O)[C@H](Cc1ccccc1)N1C(=O)c2ccccc2C1=O", "B6C3F1 mice, B16 melanoma ip, median survival T/C", "96 % of control"),
    ("O=C1c2ccccc2C(=O)c2c3c(cc(NCCNCCO)c21)N(CCO)CCN3", "B6C3F1 mice, B16 melanoma ip, median survival T/C", "112 % of control"),
    ("CC1(C)CC23C4COC(=O)C2CCC1C3CC4=O (centres undefined)", "B6C3F1 mice, B16 melanoma ip, median survival T/C", "99 % of control"),
]

Request: // returns reported T/C for input Oc1cc(O)cc(/C=C/c2ccc(O)c(O)c2)c1
Response: 117 % of control
